System: A549
Experiment: Cytotoxicity assay (cell titer-glo and calcein AM), A549
Conditions: read-out: Cytotoxicity IC50, A549, CTG; A549; CTG (cell titer-glo) readout; % error in parentheses
reported metric: IC50

These solved cases illustrate the format of a correct answer.
compound | IC50
COc1cc2c(c(OC)c1OC)-c1ccc(OC)c(=O)cc1[C@@H](NC(=O)CN(OC)[C@@H]1O[C@H](CO)[C@@H](O)[C@H](F)[C@H]1O)CC2 [Col33, 3-fluoro-3-deoxy-D-glucoside] | 2.02 µM
COc1cc2c(c(OC)c1OC)-c1ccc(OC)c(=O)cc1[C@@H](NC(=O)CN(OC)[C@@H]1OC[C@@H](O)[C@H](O)[C@@H]1O)CC2 [Col1, D-lyxoside] | 2.91 µM
COc1cc2c(c(OC)c1OC)-c1ccc(OC)c(=O)cc1[C@@H](NC(=O)CN(OC)[C@@H]1O[C@H](CSC(C)=O)[C@H](O)[C@H](O)[C@H]1O)CC2 [Col68, 6-deoxy-6-thio-acyl-D-galactoside] | 4.77 µM

Your task in this section: give IC50 for each listed record.
1. COc1cc2c(c(OC)c1OC)-c1ccc(OC)c(=O)cc1[C@@H](NC(=O)CN(OC)[C@@H]1O[C@H](CN=[N+]=[N-])[C@H](O)[C@H](O)[C@H]1O)CC2 [Col43, 6-deoxy-6-azido-D-galactoside]
2. COc1cc2c(c(OC)c1OC)-c1ccc(OC)c(=O)cc1[C@@H](NC(=O)CN(OC)[C@@H]1OC[C@@H](O)[C@@H](O)[C@H]1O)CC2 [Col5, D-riboside]

Result string:
1. > 10 µM
2. > 10 µM

###

System: ADR-RES
Experiment: Cytotoxicity assay (cell titer-glo and calcein AM), ADR-RES
Conditions: read-out: Cytotoxicity IC50, NCI/ADR RES, calcein; NCI/ADR RES; calcein AM readout; % error in parentheses
Criterion: IC50 strictly less than 0.9 µM. Met: Condition met. Not met: Condition not met.

molecule | assigned label
COc1cc2c(c(OC)c1OC)-c1ccc(OC)c(=O)cc1C(NC(=O)CN(OC)C1OC(COCc3ccccc3)C(OCc3ccccc3)C1OCc1ccccc1)CC2 (stereo not shown) | Condition met
COc1cc2c(c(OC)c1OC)-c1ccc(OC)c(=O)cc1[C@@H](NC(=O)CN(OC)[C@@H]1O[C@H](CO)[C@@H](O[C@H]3O[C@H](CO)[C@@H](O)[C@H](O)[C@H]3O)[C@H](O)[C@H]1O)CC2 [Col38, D-maltoside] | Condition met
COc1cc2c(c(OC)c1OC)-c1ccc(OC)c(=O)cc1C(NC(=O)CN(OC)C1OC(C)C(O)C(O)C1O)CC2 [Col14, L-fucoside] | Condition not met
COc1cc2c(c(OC)c1OC)-c1ccc(OC)c(=O)cc1[C@@H](NC(=O)CN(OC)[C@@H]1O[C@H](CO)[C@@H](O)[C@H](F)[C@H]1O)CC2 [Col33, 3-fluoro-3-deoxy-D-glucoside] | Condition not met
COc1cc2c(c(OC)c1OC)-c1ccc(OC)c(=O)cc1[C@@H](NC(C)=O)CC2 | Condition not met

Note: attention shifts to another entry.
Query string: Just wondering, is IC50 of COc1cc2c(c(OC)c1OC)-c1ccc(OC)c(=O)cc1[C@@H](NC(=O)CN(OC)[C@@H]1O[C@H](CF)[C@@H](O)[C@H](O)[C@H]1O)CC2 [Col54, 6-deoxy-6-fluoro-D-glucoside] below 0.9 µM?
Result string: Condition not met

Where these numbers come from: patent US20130012466A1
